- System: UISO
- Experiment: qHTS assay to identify novel small-molecules to repurpose for Merkel cell carcinoma treatment (AID 1296009); further: nearly all actives have a fitted effect of over 60% in size
- Protocol Conditions: MCC and control cell lines, CellTiter-Glo viability, 72 h; series mostly up to 46 µM
Inconclusive results are not listed. The source made the active and inactive calls. The call rests on the fitted dose curve; in most records, active means well fitted inhibition curve with a large enough effect; inconclusive means small, poorly fitted or top-dose-only effect; inactive means flat fitted curve, though single readings scatter.
Labels: active, inactive

O=c1cc(-c2ccccc2)oc2cc(O)cc(O)c12 ... inactive
COc1ccc2c(Oc3ccc(NC(=O)c4c(C)n(CC(C)(C)O)n(-c5ccccc5)c4=O)nc3)ccnc2c1 ... inactive
Cn1c(N2CCCCS2(=O)=O)nc(C(=O)NCc2ccc(F)cc2)c(O)c1=O ... inactive
C[N+](C)(C)CC(=O)O ... inactive
Cc1ccccc1C(C(=O)NC1CCCCC1)N(C(=O)Cn1ccnc1C)c1cccc(F)c1 (stereo unspecified) ... inactive
CC(=O)N[C@@H](CS)C(=O)O ... inactive
O=c1cc(-c2ccccc2)oc2cc(O)c(O)c(O)c12 ... inactive
O=C(O)[C@H]1O[C@H](Oc2cc3oc(-c4ccccc4)cc(=O)c3c(O)c2O)[C@H](O)[C@@H](O)[C@H]1O ... inactive
CC[C@H]1OC(=O)[C@H](C)C(=O)[C@H](C)[C@@H](O[C@H]2O[C@H](C)C[C@H](N(C)C)[C@@H]2O)[C@](C)(OC)C[C@@H](C)C(=O)[C@H](C)[C@H]2N(CCCCn3cnc(-c4cccnc4)c3)C(=O)O[C@]12C ... inactive
CCOC(=O)O[C@]1(C(=O)OCCl)CC[C@@H]2[C@H]3CCC4=CC(=O)C=C[C@]4(C)[C@@H]3[C@@H](O)C[C@@]21C ... inactive
CC1(C)Cc2c(sc(NC(=S)NC(=O)c3ccccc3)c2C(=O)O)CO1 ... inactive
CO[C@H]1C[C@@H]2CC[C@@H](C)[C@@](O)(O2)C(=O)C(=O)N2CCCC[C@@H]2C(=O)O[C@H]([C@H](C)C[C@@H]2CC[C@H](OP(C)(C)=O)[C@H](OC)C2)CC(=O)[C@H](C)C=C(C)[C@@H](O)[C@@H](OC)C(=O)[C@H](C)C[C@H](C)C=CC=CC=C1C ... inactive
Cc1cccc(Nc2nc(-c3ccncc3)cs2)c1 ... active
O=C1Nc2ccc(Cl)cc2C(C#CC2CC2)(C(F)(F)F)O1 (stereo unspecified) ... inactive
CCOC(CN1C(=O)[C@](CC(=O)Nc2ccc(C)cc2)(NC(=O)Nc2ccc(C)cc2)c2ccccc21)OCC ... inactive
COc1ccc2c3c1OC1C[C@@H](O)C=C[C@@]31CCN(C)C2 (stereo partly specified) ... inactive

###

- Target Or Test System: Ubiquitin carboxyl-terminal hydrolase 1 (Homo sapiens) (UniProt O94782)
- Sequence (O94782 whole entry, looked up): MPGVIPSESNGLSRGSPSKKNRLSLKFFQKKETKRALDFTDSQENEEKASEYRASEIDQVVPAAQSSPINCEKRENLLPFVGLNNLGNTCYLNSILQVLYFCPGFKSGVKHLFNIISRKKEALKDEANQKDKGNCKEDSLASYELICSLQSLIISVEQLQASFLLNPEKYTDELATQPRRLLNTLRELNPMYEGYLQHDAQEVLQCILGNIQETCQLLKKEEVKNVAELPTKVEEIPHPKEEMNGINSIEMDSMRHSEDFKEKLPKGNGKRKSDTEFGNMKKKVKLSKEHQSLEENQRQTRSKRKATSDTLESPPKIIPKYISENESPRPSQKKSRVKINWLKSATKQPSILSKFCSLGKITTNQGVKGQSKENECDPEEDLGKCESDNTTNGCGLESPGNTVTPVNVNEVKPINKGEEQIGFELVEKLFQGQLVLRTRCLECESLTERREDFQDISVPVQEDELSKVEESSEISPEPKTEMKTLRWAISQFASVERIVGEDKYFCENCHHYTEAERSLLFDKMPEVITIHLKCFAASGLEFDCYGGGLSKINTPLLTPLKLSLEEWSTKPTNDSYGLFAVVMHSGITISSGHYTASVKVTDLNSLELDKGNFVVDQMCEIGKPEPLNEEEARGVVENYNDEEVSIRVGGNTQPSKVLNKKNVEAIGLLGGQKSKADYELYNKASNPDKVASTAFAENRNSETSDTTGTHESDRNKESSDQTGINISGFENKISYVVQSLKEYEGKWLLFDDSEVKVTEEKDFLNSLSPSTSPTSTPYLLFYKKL
- Experiment: Inhibitors of USP1/UAF1: Pilot qHTS (AID 504865); further: nearly all actives have a fitted effect of over 35% in size
- Protocol Conditions: purified USP1/UAF1, Ub-rhodamine cleavage fluorescence; series mostly up to 114 µM
Records with an inconclusive call do not appear. Activity calls are given as the source filed them. Calls follow the shape of the dose curve; as a rule, active = well fitted inhibition curve with a large enough effect; inconclusive = small, poorly fitted or top-dose-only effect; inactive = flat fitted curve, though single readings scatter.
Labels: active, inactive

COc1ccc(C2Sc3ccccc3N(CCN(C)C)C(=O)C2OC(C)=O)cc1 (stereo not drawn) ... inactive
O=c1cc(-c2ccccc2)oc2cc(O)cc(O)c12 ... inactive
CCN1CCC[C@H]1CNC(=O)c1cc(S(N)(=O)=O)ccc1OC ... inactive
CCCCCN(C)CCC(O)(P(=O)(O)O)P(=O)(O)O ... inactive
COc1cc2ncnc(Nc3ccc(F)c(Cl)c3)c2cc1OCCCN1CCOCC1 ... inactive
NC(N)=Nc1nc(CSCC/C(N)=N/S(N)(=O)=O)cs1 ... inactive
COc1ccccc1N1CCN(CCCNc2cc(=O)n(C)c(=O)n2C)CC1 ... inactive
CCn1cc(C(=O)O)c(=O)c2ccc(C)nc21 ... inactive
COc1cccc(-c2cc(=O)c3ccccc3o2)c1N ... inactive
C[N+](C)(C)CCCCCC[N+](C)(C)C ... inactive
CC1(C)O[C@H]2C[C@@H]3[C@H]4CCC5=CC(=O)C=C[C@]5(C)[C@@]4(F)[C@@H](O)C[C@]3(C)[C@]2(C(=O)CO)O1 ... inactive
O=C(O)c1cc(-c2ccccc2)nc2ccccc12 ... inactive
O=C(O)c1c(Cl)c(Cl)c(Cl)c(Cl)c1-c1c2cc(I)c(=O)c(I)c-2oc2c(I)c(O)c(I)cc12 ... active
CCN(CC)CCOC(=O)c1ccc(N)cc1 ... inactive
CC1(C)CCC2=C(O1)c1ccccc1C(=O)C2=O ... active
O=c1c(-c2ccc(O)cc2)coc2cc(O)ccc12 ... inactive
CC(=O)c1ccc(S(=O)(=O)NC(=O)NC2CCCCC2)cc1 ... inactive
CC(=O)O[C@]1(C(C)=O)CC[C@H]2[C@@H]3C=C(Cl)C4=CC(=O)[C@@H]5C[C@@H]5[C@]4(C)[C@H]3CC[C@@]21C ... inactive
